Target: T1, CD123-Fc recombinant protein (human, UniProt P26951 19-305)
T1 construct: construct not described; not shown: Fc part
T1 sequence (looked up): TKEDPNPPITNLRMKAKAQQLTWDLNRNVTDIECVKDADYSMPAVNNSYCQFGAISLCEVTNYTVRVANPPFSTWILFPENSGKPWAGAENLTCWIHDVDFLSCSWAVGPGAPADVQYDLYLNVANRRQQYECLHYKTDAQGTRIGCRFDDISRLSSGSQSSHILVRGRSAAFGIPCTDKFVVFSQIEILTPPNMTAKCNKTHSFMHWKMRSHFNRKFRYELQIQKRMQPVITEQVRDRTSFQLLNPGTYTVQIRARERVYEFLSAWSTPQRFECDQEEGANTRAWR
Test: flow cytometry of T cells electroporated with CAR mRNA, stained with CD123-Fc + PE-anti-hIgG-Fc; Mock 0.36
READOUT: percent of cells in the CD123-Fc positive gate (%)
Answer in %, number only, no unit symbol.

Which percent of cells in the CD123-Fc positive gate reading was recorded for the binder anti-CD123 scFv-C24 (scFv, On mRNA-electroporated T cells as CAR) scFv: DIQMTQSPSSLSASVGDRVTITCRASQSISSYLNWYQQKPGKAPKLLIHAASSLQSGVPSKFSGSGSGTDFTLTISSLQPEDFATYYCLQYKTYPYTFGPGTKVEIKGGGGSGGGGSGGGGSQVQLVQSGAEVKKPGSSVKVSCKASGGTFSSYAISWVRQAPGQGLEWMGGIIPIFGTANYAQKFQGRVTITADESTSTAYMELSSLRSEDTAVYYCARDSPSGSTNYYYYYMDVWGKGTTVTVSS ?
79.5

I would be grateful if you could share the reported percent of cells in the CD123-Fc positive gate for anti-CD123 scFv-C32 (scFv, On mRNA-electroporated T cells as CAR) scFv: QSVVTQPPSASGTPGQRVTISCSGSSSNIEGNTVSWYQQFPGAAPKLLIYSNSYRASGVPDRFSGSKSGTSASLAISELQSEDEADYYCSAWDDSLNGPVFGGGTKVTVLGGGGSGGGGSGGGGSEVQLVESGGGLVQPGGSLRLSCAASGFTFTSYAMNWVRQAPGKGLEWVSDISSSSSYIYYADSVKGRFTISRDNAKNSLYLQMNSLRAEDTAVYYCARDLYSGYDYGYYYGMDVWGQGTTVTVSS .
72.1

# query: percent of cells in the CD123-Fc positive gate of entry C31 (scFv, also called anti-CD123 scFv-C31) scFv: QPVLTQPPSMSGTPGQRVTISCSGGNSNIGDNSVSWYQQLPGTAPKLLIYNNNQRPLGVPDRFSGSKSGTSASLAIRGLQSEDEAHYYCSSWDDSLEGAQFGGGTKVTVLGGGGSGGGGSGGGGSEVQLVESGGGLVKPGGSLRLSCAASGFTFSDYYMSWIRQAPGKGLEWVSYISSSGSTIYYADSVKGRFTISRDNAKNSLYLQMNSLRAEDTAVYYCARGHQYYDFWSGYSNWFDPWGQGTLVTVSS
0.64

Reference for the values: patent US20250381223A1
